Here the recorded pIC50 is given for each entry.
experimental.system: WDR5 (Homo sapiens (Human))
test.name: FP based competitive binding assay to WDR5
condition.set: read-out: Binding Affinity to WDR5 (IC50 ± SD); Table 5 peptidomimetics
pIC50: −log10 of the molar value.

Completed entries (count: 3):
| compound | pIC50 |
| --- | --- |
| CC[C@H](NC(=O)[C@H](CCCNC(=N)N)NC(=O)C1(NC(C)=O)CCC1)C(=O)NCc1ccccc1 | > 6.00 |
| CCC(CC)(NC(=O)C(C)C)C(=O)N[C@@H](CCCNC(=N)N)C(=O)NCCCc1ccccc1 [Compound 11M] | < 6.00 |
| C[C@H](NC(=O)[C@H](CCCNC(=N)N)NC(=O)[C@H](C)NC(=O)C1CCC1)C(N)=O | > 5.00 |

Need pIC50, item CC[C@H](NC(=O)[C@H](CCCNC(=N)N)NC(=O)C1(NC(C)=O)CCC1)C(N)=O > 6.00

Quick one: pIC50 for CC(=O)N[C@H](C(=O)N[C@@H](CCCNC(=N)N)C(=O)NC1(C(N)=O)CCC1)C(C)C ? > 5.00

---

experimental.system: WDR5 (Homo sapiens (Human), UniProt P61964)
test.name: FP based competitive binding assay to WDR5
condition.set: read-out: Binding Affinity to WDR5 (IC50 ± SD); Table 5 peptidomimetics
Procedure: Another aspect of the invention is development of a Fluorescent Polarization (FP) based competitive binding assay. […] Next, the millipolarization (mP) values were measured at different time points in order to determine equilibrium duration and stability. […] All the FP based experiments were performed in MICROFLUOR® 2 Black, “U” Bottom, 96-well Microtiter Plates (ThermoSci.) and FP was measured as mP units in a microplate reader (Tecan Ultra) with excitation at 485 nm and emission at 530 nm. […]
*1 amine or outer side, *2 acyl side, *3 side chain or, on linkers, in order; H or OH if unused. Where a SMILES comes first, the peptide text is derived from it. The star is where a group is joined. Isobutyryl = CC(C)C(=O)*; CO = O=C([*:1])[*:2]
experimental.endpoint: IC50

Previously resolved entries follow.
| compound | IC50 |
| --- | --- |
| CC[C@H](C)NC(=O)[C@H](CCCNC(=N)N)NC(=O)C(CC)(CC)NC(=O)C(C)C [Compound 11A] | < 3000 nM |
| CCC(CC)(NC(=O)C(C)C)C(=O)N[C@@H](CCCNC(=N)N)C(=O)NCCCCc1ccccc1 [Compound 11N] | < 10000 nM |
| CC(C)C(=O)NC1(C(=O)N[C@@H](CCCNC(=N)N)C(=O)NC2(C(=O)NC(c3ccccc3)c3ccccc3)CCCC2)CCC1 [Compound 10B] | < 1000 nM |

Quick check: IC50 on WDR5 (Homo sapiens (Human), UniProt P61964), item CCC(CC)(NC(=O)C(C)C)C(=O)N[C@@H](CCCNC(=N)N)C(=O)NC1CCCCC1 [Compound 11E] ? < 10000 nM

# get_value(readout= IC50, system= WDR5 (Homo sapiens (Human), UniProt P61964)) for CCC(CC)(NC(=O)c1ccccc1)C(=O)N[C@H](CCCNC(=N)N)C(=O)NC1(C(N)=O)CCCC1 [Compound 10F] > 5000 nM

Form: Entry = CC(=O)NC1(C(=O)N[C@@H](CCCNC(=N)N)C(=O)N[C@H](C(N)=O)C(C)C)CCC1 | System = WDR5 (Homo sapiens (Human), UniProt P61964) | IC50 = ____ < 1000 nM

Form: Entry = CC(=O)N[C@@H](C)C(=O)N[C@@H](CCCCN)C(=O)N[C@@H](C)C(N)=O [Compound 2C] (Ac-Ala-Lys-Ala-NH2) | System = WDR5 (Homo sapiens (Human), UniProt P61964) | IC50 = ____ > 1000 nM

What IC50 appears in the records for this compound with WDR5 (Homo sapiens (Human), UniProt P61964)? CC(C)C(=O)N[C@@H](C)C(=O)N[C@@H](CCCNC(=N)N)C(=O)N[C@@H](C)C(N)=O [Compound 9A] (Isobutyryl-Ala-Arg-Ala-NH2) < 1000 nM

Identify the measured IC50 of CC(=O)N[C@@H](C)C(=O)N[C@@H](CCCNC(=N)N)C(=O)N[C@H](C(N)=O)[C@@H](C)O [Compound 3I] (Ac-Ala-Arg-Thr-NH2) for WDR5 (Homo sapiens (Human), UniProt P61964). < 1000 nM

Item C[C@H](NC(=O)[C@H](CCCNC(=N)N)NC(=O)[C@H](C)NC(=O)N(C)C)C(N)=O [Compound 9J] ({NMe2-CO}-Ala-Arg-Ala-NH2) with WDR5 (Homo sapiens (Human), UniProt P61964) - IC50? < 100000 nM

Query the reported IC50 for WDR5 (Homo sapiens (Human), UniProt P61964); item: CC(=O)NC(C)(C)C(=O)N[C@@H](CCCNC(=N)N)C(=O)NC1(C(N)=O)CCCC1 < 1000 nM

Reported IC50 for WDR5 (Homo sapiens (Human), UniProt P61964), given CCC(CC)(NC(=O)c1ccccc1)C(=O)N[C@@H](CCCNC(=N)N)C(=O)NC1(C(=O)NC(c2ccccc2)c2ccccc2)CCCC1 [Compound 10I] ? > 5000 nM

Any idea what IC50 came out for CCC(CC)(NC(=O)C(C)C)C(=O)N[C@@H](CCCNC(=N)N)C(=O)N[C@H](C)c1ccccc1 [Compound 11F] on WDR5 (Homo sapiens (Human), UniProt P61964)? < 30000 nM

Requested read-out IC50, target or system WDR5 (Homo sapiens (Human), UniProt P61964), entry CC(=O)N[C@@H](C)C(=O)N[C@H](C(=O)N[C@@H](C)C(N)=O)C1CCN(C(=N)N)CC1 > 10000 nM

Report IC50 for CC(=O)NC1(C(=O)N[C@@H](CCCNC(=N)N)C(=O)N[C@H](C(N)=O)C(C)C)CCCCC1 tested on WDR5 (Homo sapiens (Human), UniProt P61964). < 1000 nM

---

experimental.system: WDR5 (Homo sapiens (Human), UniProt P61964)
test.name: FP based competitive binding assay to WDR5
condition.set: read-out: Binding Affinity to WDR5 (IC50 ± SD); Table 5 peptidomimetics
pIC50: −log10 of the molar value. Where a SMILES comes first, the peptide text is derived from it. [ ]: non-standard residue; d: D form. The star is where a group is joined. NHPhenethyl = c1ccc(CCN*)cc1; Isobutyryl = CC(C)C(=O)*; Deg = CCC(N)(CC)C(=O)O; NHPh = c1ccc(N*)cc1
Collected pIC50 values appear next to each entry.

Take a look at these entries with their results.
| compound | experimental.system | pIC50 |
| --- | --- | --- |
| CC(=O)NC1(C(=O)N[C@@H](CCCNC(=N)N)C(=O)N[C@H](C(N)=O)C(C)C)CC1 [Compound 4A] | WDR5 (Homo sapiens (Human), UniProt P61964) | > 6.00 |
| CC(=O)N[C@@H](C)C(=O)N[C@@H](CCCNC(=N)N)C(=O)N[C@@H](C)C(=O)NC(c1ccccc1)c1ccccc1 [Compound 7F] | WDR5 (Homo sapiens (Human), UniProt P61964) | > 6.00 |
| CCC(CC)(NC(=O)C(C)C)C(=O)N[C@@H](CCCNC(=N)N)C(=O)NCCc1ccccc1 [Compound 11L] (Isobutyryl-[Deg]-Arg-NHPhenethyl) | WDR5 (Homo sapiens (Human), UniProt P61964) | < 5.00 |
| CC(=O)N[C@@H](C)C(=O)N[C@@H](CCCN)C(=O)N[C@@H](C)C(N)=O [Compound 2B] | WDR5 (Homo sapiens (Human), UniProt P61964) | < 6.00 |
| C[C@H](NC(=O)[C@H](CCCNC(=N)N)NC(=O)[C@H](C)NC(=O)C1CC1)C(N)=O [Compound 9E] | WDR5 (Homo sapiens (Human), UniProt P61964) | > 5.30 |

Item: CC[C@H](NC(=O)[C@H](CCCNC(=N)N)NC(=O)C(CC)(CC)NC(=O)C(C)C)c1ccccc1 [Compound 11K] Test system: WDR5 (Homo sapiens (Human), UniProt P61964) Read-out: pIC50 Value: ? > 5.52

Requested read-out pIC50, target or system WDR5 (Homo sapiens (Human), UniProt P61964), entry CCC(CC)(NC(=O)C(C)C)C(=O)N[C@@H](CCCNC(=N)N)C(=O)Nc1ccccc1 [Compound 11C] (Isobutyryl-[Deg]-Arg-NHPh) > 5.00

What is its pIC50 for WDR5 (Homo sapiens (Human), UniProt P61964)? Entry: CC(=O)N[C@H](C(=O)N[C@@H](CCCNC(=N)N)C(=O)NC1(C(N)=O)CCCCC1)C(C)C [Compound 5D] > 5.00

Origin of the recorded values: patent US9233086B2
